Assay: BT084 cell growth, single and combined drugs, ICGC_MB145, cisplatin and BGB IC40 combos (AID 1671461);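 note: cells exposed to drugs for 96 hours; 0% = vehicle DMSO and 100% = high DMSO full killing control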
Settings: BT084 medulloblastoma cells, drug combinations, measured here: BGB IC40 combination 0.05 uM, at 0.05 µM, stronger effect = higher value
measurement kind: inhibition (%)

compound=CN[C@@H]1CN(c2ccc3c(=O)c(C(=O)O)cn(-c4nccs4)c3n2)C[C@H]1OC endpoint_result=-77.9
compound=NC(=O)c1nc(F)c[nH]c1=O endpoint_result=-16.8
compound=Cc1ccc2nc(NCCN)c3ncc(C)n3c2c1 endpoint_result=-4.49
compound=CO[C@H]1/C=C/O[C@@]2(C)Oc3c(C)c(O)c4c(O)c(c(/C=N\N5CCN(C6CCCC6)CC5)c(O)c4c3C2=O)NC(=O)/C(C)=C\C=C\[C@H](C)[C@H](O)[C@@H](C)[C@@H](O)[C@@H](C)[C@H](OC(C)=O)[C@@H]1C endpoint_result=-25.7
compound=Nc1nc(OCc2cc(Br)cs2)c2[nH]cnc2n1 endpoint_result=-9.82
compound=COc1ccc(-n2c(SCCCN3C(=O)c4cccc5cccc(c45)C3=O)nnc2-c2ccncc2)cc1 endpoint_result=15.7
compound=O=c1[nH]cnc2ccccc12 endpoint_result=-51.7
compound=O=C(CCCCCCNC(=O)c1cnc(N(c2ccccc2)c2ccccc2Cl)nc1)NO endpoint_result=-0.825
compound=COc1cc2ncnc(-n3nc(-c4ccccn4)nc3N)c2cc1OC endpoint_result=69
compound=COc1ccc(C(=O)C2CCN(CC(=O)N(Cc3nc4c(c(=O)[nH]3)COCC4)CC3CC3)CC2)cc1 endpoint_result=-40
compound=O=C(COc1cccc2c(=O)[nH]ccc12)c1ccccc1 endpoint_result=-29.5
compound=Nc1nc2n[nH]nc2c(=O)[nH]1 endpoint_result=-14
compound=CN(C)CCN1C(=O)c2cccc3cc(N)cc(c23)C1=O endpoint_result=-42.3
compound=CC(=O)[C@]1(N)Cc2c(O)c3c(c(O)c2[C@@H](O[C@H]2C[C@H](O)[C@H](O)CO2)C1)C(=O)c1ccccc1C3=O endpoint_result=-38.7
compound=CS(=O)(=O)c1ccc(-c2nnc(/C=C/c3nnc(-c4ccc(C#N)cc4)o3)n2-c2ccccc2Cl)nc1 endpoint_result=-3.22
compound=O=C(/C=C/c1cccc(S(=O)(=O)Nc2ccccc2)c1)NO endpoint_result=14.1
compound=C[C@]12CCCN1CC1=NNC(=O)c3cc(F)cc4[nH]c2c1c34 endpoint_result=-29
compound=Cc1ccc([N+](=O)[O-])cc1S(=O)(=O)N(C)/N=C/c1cnc2ccc(Br)cn12 endpoint_result=16.7
compound=O=c1cc(N2CCOCC2)oc2c1ccc1ccccc12 endpoint_result=-19.7
compound=CN(C)C/C=C/C(=O)Nc1ccc(C(=O)Nc2cccc(Nc3ncc(Cl)c(-c4c[nH]c5ccccc45)n3)c2)cc1 endpoint_result=15.5
compound=CN(C)c1ccc(C(=O)NCCCCCCC(=O)NO)cc1 endpoint_result=2.96
compound="NC1CCC(N[C@@H]2C[C@H]2c2ccccc2)CC1 (some centres undefined)" endpoint_result=65.9
compound=CC(=O)Nc1ccc(C(=O)Nc2ccccc2N)cc1 endpoint_result=-33.4
compound=Nc1ccc(-c2ccc3ncc4ccc(=O)n(-c5cccc(C(F)(F)F)c5)c4c3c2)cn1 endpoint_result=-29.9
compound=O=C(O)CO.[NH2-].[NH2-].[Pt+2] endpoint_result=-15.1
compound=O=c1cc(N2CCOCC2)oc2c(-c3cccc4c3sc3ccccc34)cccc12 endpoint_result=-22.7
compound=C=C1[C@H](CO)[C@@H](O)C[C@@H]1n1cnc2c(=O)[nH]c(N)nc21 endpoint_result=-15.2
compound=CN(C)Cc1c(C(=O)NCCOc2ccc(C(=O)NO)cc2)oc2ccccc12 endpoint_result=30.2
compound=Nc1ccccc1NC(=O)c1ccc(CNc2nccc(-c3cccnc3)n2)cc1 endpoint_result=-5.63
